The measurements presented in this section are drawn from patent US8476043B2.

# experimental-system: rat sEH (Rattus norvegicus, UniProt P80299)
# Construct: EET fatty acid was hydrolyzed to 30% by rat renal cortex cytosol; from tissue; host or cells: rat renal cortex cytosol
# Sequence (P80299 whole entry): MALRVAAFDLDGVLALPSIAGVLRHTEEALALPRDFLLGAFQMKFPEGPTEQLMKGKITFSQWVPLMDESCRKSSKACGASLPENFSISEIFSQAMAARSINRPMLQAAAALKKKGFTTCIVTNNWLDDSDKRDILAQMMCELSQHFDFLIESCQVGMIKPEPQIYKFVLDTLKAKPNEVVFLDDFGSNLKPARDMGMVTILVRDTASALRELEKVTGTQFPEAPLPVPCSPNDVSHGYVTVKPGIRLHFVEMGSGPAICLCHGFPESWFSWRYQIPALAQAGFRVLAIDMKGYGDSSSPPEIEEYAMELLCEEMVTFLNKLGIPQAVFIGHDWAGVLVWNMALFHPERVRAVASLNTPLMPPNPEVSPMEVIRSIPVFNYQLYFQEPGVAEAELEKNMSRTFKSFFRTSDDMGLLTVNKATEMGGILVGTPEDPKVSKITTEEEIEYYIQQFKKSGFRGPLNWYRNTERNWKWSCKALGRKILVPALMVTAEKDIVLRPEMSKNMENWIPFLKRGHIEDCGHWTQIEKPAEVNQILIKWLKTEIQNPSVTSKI
# assay-name: Relative turnover of arachidonic acid epoxides by rat renal cortex cytosol
# Type: biochemical
# experimental-setup: Table 19, EET mixture hydrolyzed to 30% by rat renal cortex cytosol
# Experimental: For epoxy fatty acid hydrolysis, the soluble epoxide hydrolase prefers substrates with epoxide moieties that are more distant from the carboxyl terminal. […] Independently, the relative substrate turnover of the epoxy arachidonates were calculated at 0.1:8.1:14.3 when a 1:1:2 mixture of 8,9-, 11,12-, and 14,15-EET fatty acid was hydrolyzed to 30% by rat renal cortex cytosol. […]
readout: Relative EET Turnover

{"compound": "CCCCC/C=C\\C/C=C\\C/C=C\\CC1OC1CCCC(=O)O (stereo not shown)", "readout": "Relative EET Turnover", "result-value": 0.1}
{"compound": "CCCCCC1OC1C/C=C\\C/C=C\\C/C=C\\CCCC(=O)O (stereo not shown)", "readout": "Relative EET Turnover", "result-value": 14.3}
{"compound": "CCCCC/C=C\\C/C=C\\CC1OC1C/C=C\\CCCC(=O)O (stereo not shown)", "readout": "Relative EET Turnover", "result-value": 1}
{"compound": "CCCCC/C=C\\C[C@H]1O[C@H]1C/C=C\\C/C=C\\CCCC(=O)O", "readout": "Relative EET Turnover", "result-value": 8.1}

----------
pIC50 listing for selected compounds.
# experimental-system: mouse sEH (Mus musculus, UniProt P34914)
# Construct: made in house
# Sequence (P34914 whole entry): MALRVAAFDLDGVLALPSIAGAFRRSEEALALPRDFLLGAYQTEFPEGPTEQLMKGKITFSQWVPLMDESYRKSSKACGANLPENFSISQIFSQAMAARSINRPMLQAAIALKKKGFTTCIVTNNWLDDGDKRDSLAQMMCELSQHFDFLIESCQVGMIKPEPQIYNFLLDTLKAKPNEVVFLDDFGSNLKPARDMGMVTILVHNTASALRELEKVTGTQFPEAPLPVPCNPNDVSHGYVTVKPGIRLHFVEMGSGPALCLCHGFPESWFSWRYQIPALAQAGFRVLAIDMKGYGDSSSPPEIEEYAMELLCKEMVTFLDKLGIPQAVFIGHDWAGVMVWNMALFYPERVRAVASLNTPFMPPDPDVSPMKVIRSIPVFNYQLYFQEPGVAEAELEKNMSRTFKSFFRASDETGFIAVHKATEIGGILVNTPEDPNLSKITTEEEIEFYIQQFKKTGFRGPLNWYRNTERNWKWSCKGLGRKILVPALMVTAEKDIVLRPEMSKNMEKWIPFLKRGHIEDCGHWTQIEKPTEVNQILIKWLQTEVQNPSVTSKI
# assay-name: sEH inhibition, spectrometric assay with racemic 4-nitrophenyl-trans-2,3-epoxy-3-phenylpropyl carbonate as substrate
# Assay type: biochemical
# experimental-setup: Table 12; amino acid derivatives of 632-Tyr, unpurified reaction solutions; read-out: Mouse sEH IC50
pIC50: −log10 of the molar value.
readout: pIC50

{"compound": "N[C@@H](CO)C(=O)O [Serine]", "result-value": 7.15}
{"compound": "NCC(=O)O [Glycine]", "result-value": 7.22}

----------
# experimental-system: mouse sEH (Mus musculus)
# Construct: made in house
# assay-name: sEH inhibition, spectrometric assay with racemic 4-nitrophenyl-trans-2,3-epoxy-3-phenylpropyl carbonate as substrate
# Format: biochemical
# experimental-setup: Table 3; mean ± SD; read-out: IC50 Mouse sEH
readout: IC50 (µM)

{"smiles-data": "CCCCCOC(=O)OCCNC(=O)Nc1cccc(Cl)c1", "readout": "IC50", "measure-unit": "µM", "result-value": 7.6}
{"smiles-data": "CCCCCCC(=O)OCCNC(=O)Nc1cccc(Cl)c1", "readout": "IC50", "measure-unit": "µM", "result-value": 7.7}
{"smiles-data": "CCCCCNC(=O)OCCNC(=O)Nc1cccc(Cl)c1", "readout": "IC50", "measure-unit": "µM", "result-value": 5.3}

----------
# experimental-system: human sEH (Homo sapiens)
# Construct: made in house
# Sequence (P34913 1-555): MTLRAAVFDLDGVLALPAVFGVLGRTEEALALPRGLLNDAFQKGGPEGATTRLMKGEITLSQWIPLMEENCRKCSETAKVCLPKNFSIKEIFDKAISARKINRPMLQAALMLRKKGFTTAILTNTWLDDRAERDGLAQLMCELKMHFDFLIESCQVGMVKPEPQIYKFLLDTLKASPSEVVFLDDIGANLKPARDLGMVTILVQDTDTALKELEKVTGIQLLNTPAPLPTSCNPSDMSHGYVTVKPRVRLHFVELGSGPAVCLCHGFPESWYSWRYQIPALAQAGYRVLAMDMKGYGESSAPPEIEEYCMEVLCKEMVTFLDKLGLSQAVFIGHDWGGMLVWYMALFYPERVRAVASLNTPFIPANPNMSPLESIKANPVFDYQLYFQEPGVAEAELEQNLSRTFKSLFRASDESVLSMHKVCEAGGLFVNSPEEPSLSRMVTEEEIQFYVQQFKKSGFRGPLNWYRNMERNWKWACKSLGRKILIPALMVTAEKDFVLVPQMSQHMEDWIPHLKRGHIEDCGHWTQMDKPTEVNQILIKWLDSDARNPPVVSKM
# assay-name: sEH inhibition, spectrometric assay with racemic 4-nitrophenyl-trans-2,3-epoxy-3-phenylpropyl carbonate as substrate
# Type: biochemical
# experimental-setup: Table 8; read-out: IC50 Human sEH
pIC50: −log10 of the molar value.

{"compound": "C#CCCOCCOCCCCCNC(=O)NC12CC3CC(CC(C3)C1)C2 [Compound 913]", "pIC50": 7.00}
